biological target: T1, mouse serum albumin (MSA), full length (mouse, UniProt P07724 25-608); assay: SPR off-rate ratio to parent ADX_7016_A01, MSA, 25 C
T1 construct: mature; Immobilized on CM5 chip (SPR) or coated on plates (ELISA); also called mouse albumin; murine serum albumin
test-readout: MSA kd/Parent kd

[
  {
    "binder": "ADX_7016_C03 (Y44Q) (designed binder, Full His6-tagged entry; also called 6727_B03) MGVSDVPRDLEVVAATPTSLLISWDAPAVTVRYYRITYGREVQKYSDLGPLYIQQEFTVPGSKSTATISGLKPGVDYTITVYAVTGSGESPASSKPISINYRTEIDKPSQHHHHHH",
    "test-readout": "MSA kd/Parent kd",
    "numeric-value": 41.9
  },
  {
    "binder": "ADX_7016_G01 (Y44S) (designed binder, Full His6-tagged entry; also called 6727_G02) MGVSDVPRDLEVVAATPTSLLISWDAPAVTVRYYRITYGREVQKYSDLGPLYISQEFTVPGSKSTATISGLKPGVDYTITVYAVTGSGESPASSKPISINYRTEIDKPSQHHHHHH",
    "test-readout": "MSA kd/Parent kd",
    "numeric-value": 5
  },
  {
    "binder": "ADX_6727_F07 (Y44S/K85A) (designed binder, Full His6-tagged entry) MGVSDVPRDLEVVAATPTSLLISWDAPAVTVRYYRITYGREVQKYSDLGPLYISQEFTVPGSKSTATISGLKPGVDYTITVYAVTGSGESPASSAPISINYRTEIDKPSQHHHHHH",
    "test-readout": "MSA kd/Parent kd",
    "numeric-value": 6.5
  },
  {
    "binder": "ADX_6727_G04 (Y44S/K85S) (designed binder, Full His6-tagged entry) MGVSDVPRDLEVVAATPTSLLISWDAPAVTVRYYRITYGREVQKYSDLGPLYISQEFTVPGSKSTATISGLKPGVDYTITVYAVTGSGESPASSSPISINYRTEIDKPSQHHHHHH",
    "test-readout": "MSA kd/Parent kd",
    "numeric-value": 6
  }
]
